Listed here are compounds together with their documented TGI.
- System: HCC-2998 colon
- PROCEDURE SUMMARY: NCI tumour cell line growth inhibition, 48 h

COc1ccc(C(c2ccccc2C(=O)O)c2ccc(OC)c3ccccc23)c2ccccc12; 19.8 µM
C=C1CCC2CC1C(C(=O)c1c[nH]c3ccccc13)=NC2(C)C (stereo not given); > 100 µM
C[C@@H]1C[C@H]2OC(=O)[C@@]3(C)CCC[C@@](C)([C@@H]23)[C@@]1(O)CCc1ccoc1; > 100 µM

Query :: Param item = `O=C(Nc1ccc(OS(=O)(=O)c2ccc(F)cc2)cc1)C12CC3CC(CC(C3)C1)C2` ; retrieve measured TGI.
Result :: > 100 µM

Query :: Param item = `COc1ccc(-c2nn(-c3cccc(Cl)c3)cc2/C=C2\NC(=S)N(c3ccc(Cl)cc3)C2=O)cc1` ; retrieve measured TGI.
Result :: > 25 µM

Query :: Param item = CC(C)C[S+]1C2=C([O-])CC(C)(C)CC2=Nc2ccccc21 (stereo not given) ; retrieve measured TGI.
Result :: > 100 µM

Query :: Param item = `COC(=O)c1cc(-c2ccc3ccccc3c2)[nH]c(=O)c1C#N` ; retrieve measured TGI.
Result :: > 100 µM

Query :: Param item = `O=C1NC(=O)C(C(=O)C(=O)Nc2cc(Cl)ccc2Cl)C(=O)N1` ; retrieve measured TGI.
Result :: > 100 µM

Query :: Param item = COc1cc(C2CC(C)(N3CCOCC3)Oc3cc4c(cc32)OCO4)cc(OC)c1OC (stereo not given) ; retrieve measured TGI.
Result :: 2.11 µM

Query :: Param item = `COc1ccc2[nH]c3cc4c(=O)c5cc(OC)ccc5[nH]c4cc3c(=O)c2c1` ; retrieve measured TGI.
Result :: > 100 µM

* * *

- Tested on: MALME-3M melanoma
- PROCEDURE SUMMARY: NCI tumour cell line growth inhibition, 48 h; in the data active = GI50 below about 0.43 µM; inactive = the rest
Tick one outcome: active, inactive

Examples with answers:
CCn1cnc(C[C@H](NC(=O)[C@H](CCCCNC(=O)Nc2cc(C(F)(F)F)cc(C(F)(F)F)c2)NC(=O)Nc2cc(C(F)(F)F)cc(C(F)(F)F)c2)C(=O)OC)c1; inactive
COc1ccc2[nH]c(Cl)c(/C=C3/C(=O)Nc4ccccc43)c2c1; inactive
Cc1nnc(C[C@@H]2C=C(c3ccc(Cl)cc3)c3ccccc3-n3c(C)nnc32)o1; inactive
COc1cccc(/C=N/[N-]C(=O)c2ccncc2)c1[O-].[Mn+2].[OH3+]; inactive
O=C1c2c(O)cccc2C(C(=O)CCCCCC(=O)C2c3cccc(O)c3C(=O)c3c(O)cccc32)c2cccc(O)c21; inactive

Query :: Hi, do you know how `C[C@@H](Nc1nc(N[C@H](C)C(F)(F)F)nc(-c2cccc(Cl)n2)n1)C(F)(F)F` came out in this test?
Result :: inactive

Query :: Hi, do you know how `Cc1cccc2c(C3=C(c4cn(C)c5ccccc45)C(=O)NC3=O)cn(C)c12` came out in this test?
Result :: inactive

Query :: Hi, do you know how `O=C(Nc1ccc(OS(=O)(=O)c2ccc(F)cc2)cc1)C12CC3CC(CC(C3)C1)C2` came out in this test?
Result :: inactive

Query :: Hi, do you know how C[C@@H](O)[C@@H](C)Oc1nc(Nc2ccc(S(=N)(=O)C3CC3)cc2)ncc1C(F)(F)F (stereo not given in full) came out in this test?
Result :: active

Query :: Hi, do you know how `O=C(COc1ccc(/C=C2\Oc3ccc4ccccc4c3C2=O)cc1)c1ccc([N+](=O)[O-])cc1` came out in this test?
Result :: inactive

Query :: Hi, do you know how `O=c1cc(-c2ccc(Cl)cc2)[nH]c2ccccc12` came out in this test?
Result :: inactive

Query :: Hi, do you know how `CCN(C(=O)N1CCN(c2cc3c(cc2F)c(=O)c(C(=O)O)cn3C2CC2)CC1)c1nc(-c2ccccc2)cs1` came out in this test?
Result :: inactive

Query :: Hi, do you know how Nc1nc(N)c2c(n1)NC(c1sc(Cl)nc1Cl)CC(c1ccccc1)=N2 (stereo not given) came out in this test?
Result :: inactive

Query :: Hi, do you know how `CCOC(=O)/C(=C/CC/C(C)=C/CC/C(C)=C/CCc1ccoc1)CC(=O)N1CCCCC1` came out in this test?
Result :: inactive

Query :: Hi, do you know how `COc1ccc(-n2cc(-c3cc(OC)c(OC)c(OC)c3)nc2SCc2ccc(Cl)cc2)cc1OC` came out in this test?
Result :: inactive
